For each entry below, report its inhibition value.
- PROTOCOL SUMMARY: H1N1 influenza NS1A inhibitors, functional cell based assay (AID 504329)
- DETAILS: percent inhibition, at 12.5 µM, hits give high values
Among all 340,000 compounds or so, about 1,000 (0.29%) were called active. The list is a sample of the results. Measured potencies and affinities stand elsewhere.
Number in %, nothing else.

Request: Look at this compound and give its reported inhibition. `CC1(C)CC(=O)C(N=Nc2ccc(-c3ccccc3)cc2)=C(O)C1`
Result: 10.2

Request: Requested field: inhibition. Item: `Cn1c(Cn2c(=O)sc3ccccc32)nnc1SCC(=O)NCCc1ccccc1`
Result: 1.01

Request: Dear colleague, I am looking for the recorded inhibition of the following compound: `Cc1ccc(NC(=O)C2CCN(S(=O)(=O)c3ccc4c(c3)C(C)(C)C(=O)N4C)CC2)c(C)c1`
Result: 8.27

Request: Please look up its inhibition: Cn1c2c(c(=O)n(C)c1=O)C(c1ccc(F)cc1)C(C#N)=C(N)O2 (stereo not given)
Result: -0.36

Request: May I ask what inhibition has been recorded for `O=C(NNc1c2ccccc2nc2ccccc12)c1ccccc1Cl` ?
Result: -1.62

Request: I'd like to know its inhibition. The compound in question is C[N+](C)(C)C(Cc1ccccc1)C(=O)[O-] (stereo not given)
Result: -4.58

Request: Requested field: inhibition. Item: `Oc1c(CN2CCOCC2)cc(-c2ccccc2)cc1CN1CCOCC1`
Result: 9.91

Request: Quick check: inhibition of CCOC(=O)C1CCC(CN(Cc2ccccc2)S(=O)(=O)c2ccc([N+](=O)[O-])cc2)CC1 (stereo not given) ?
Result: 6.67

Request: Look up inhibition: `Cc1c(N=Nc2c(O)n(C)c(=O)n(C)c2=O)c(=O)n(-c2ccccc2)n1C`
Result: 3.65

Request: // query inhibition value for entry `O=c1[nH]c(-c2ccccn2)nc2sc(-c3ccccc3)cc12`
Result: 1.57

---

Task for the reader: assign each of the following compounds its reported inhibition.
- PROTOCOL SUMMARY: H1N1 influenza NS1A inhibitors, functional cell based assay (AID 504329)
- DETAILS: percent inhibition, at 12.5 µM, hits give high values
Hit rate of the full screen: of about 340,000 compounds, about 1,000 (0.29%) were called active. The list is a sample of the results. Potency and affinity values are given separately.

Request: Report inhibition for `O=C(CNCCC1=CCCCC1)Nc1ccccc1N1CCCCCC1` please.
Result: -4.99% (inactive)

Request: Which inhibition value belongs to `CC(C)c1ccc(NC(=O)C2=NNC(=O)CC2)cc1` ?
Result: 8.16% (inactive)

Request: Suppose we examine the compound `Nc1[nH]c(N=NC(=O)c2ccccc2)c2ccccc12` ; what inhibition value has been reported?
Result: 19% (inactive)

Request: Would you mind telling me what inhibition value was observed for Cc1ccc(S(=O)(=O)N2CC(O)C[C@H]2C(=O)OCC(=O)N2CCN(c3ccc(F)cc3)CC2)cc1C (stereo partly drawn) ?
Result: -4.2% (inactive)

Request: I would be grateful if you could share the reported inhibition for `C=CC(=O)Nc1cccc(Oc2ccnc3[nH]ccc23)c1` .
Result: 19.9% (inactive)

Request: Suppose we examine the compound `CC1(C)Oc2ccc(NC(=O)c3ccco3)cc2O1` ; what inhibition value has been reported?
Result: -10.6% (inactive)

Request: Endpoint output: inhibition of CC(Sc1nnc(C2CC2)n1C1CC1)C(=O)c1ccc(F)cc1 (stereo not drawn) . Value?
Result: -11.2% (inactive)

Request: Item `O=C(COc1cc(F)ccc1[N+](=O)[O-])Nc1ccc(N2CCOCC2)cc1` has what recorded inhibition?
Result: 6.79% (inactive)

Request: Could you tell me which inhibition is on file for `Cc1n[nH]c(=S)n(/N=C/c2cccs2)c1=O` ?
Result: -10.9% (inactive)

Request: So what's the measured inhibition for this one? `CN1CCN(c2ccc(NC(=O)Oc3ccccc3)cc2)CC1`
Result: 17.8% (inactive)

Request: Please report the recorded inhibition for `CN1CCN(c2ccc(NC(=O)COc3ccccc3[N+](=O)[O-])cc2)CC1` .
Result: 0.13% (inactive)

Request: I'd like to know its inhibition. The compound in question is `O=C1C=C(O)c2cccc(O)c2C1=O`
Result: 3.19% (inactive)

Request: What value of inhibition has been recorded for this entry: `COc1cc(C(=O)OCC(=O)NC(=O)c2cccn2C)ccc1OC(F)F`
Result: 5.75% (inactive)

Request: Request the reported inhibition associated with `CCCNc1ncnc2onc(C)c12`
Result: -5.28% (inactive)

Request: GET /values?readout=inhibition&item= `COc1ccc(O)c(/C=C2/SC(=S)N(Cc3ccccc3)C2=O)c1`
Result: 8.37% (inactive)

Request: Quick one: inhibition of `Nc1[nH]c(N=NC(=O)c2ccc(Cl)cc2)c2ccccc12` ?
Result: 10.9% (inactive)

Request: GET /values?readout=inhibition&item= CC1N(C)c2cc(NC(=O)c3ccco3)c(P(=O)(Nc3ccc([N+](=O)[O-])cc3)N3CCOCC3)cc2C1(C)C (stereo not drawn)
Result: 10.5% (inactive)

Request: Would you mind telling me what inhibition value was observed for `CC(C)Oc1cccc(C(=O)Nc2ccc(N3CCN(C)CC3)cc2)c1` ?
Result: -2.02% (inactive)

Request: Looking for the measured inhibition of Cc1ccc(S(=O)(=O)N2CC(O)C[C@H]2C(=O)OCC(=O)Nc2ccc(N3CCOCC3)cc2)cc1C (stereo partly drawn) , can you help?
Result: -8.01% (inactive)

Request: # get_value(readout='inhibition', item= `Nc1[nH]c(N=NC(=O)c2ccc(F)cc2)c2ccccc12` )
Result: 12.2% (inactive)

Request: // inhibition lookup, key: `CN1C(=O)/C(=C\c2ccccc2OCc2ccccc2)SC1=S`
Result: 10.4% (inactive)

Request: // returns reported inhibition for input `Cc1nn2c(=S)[nH]nc2[nH]c1=O`
Result: 5.07% (inactive)

Request: I'd like to know its inhibition. The compound in question is `NS(=O)(=O)c1ccc(NC(=O)COC(=O)C2CCCCC2)cc1`
Result: -11.2% (inactive)
